Test: Pharmacokinetic study, oral capsule administration under fasted conditions in beagle dogs
Assay type: in vivo
Conditions: dog, mean, male beagle dogs, equivalent metaxalone dosage of 21 mg/kg, plasma, linear trapezoidal rule, read-out: AUC
assay_readout: AUC (ng·h/mL)
Please give a number only; it is taken to be in ng·h/mL.

Please list AUC recorded for the compound Cc1cc(C)cc(OCC2CNC(=O)O2)c1 (stereo not shown) [Metaxalone] 2380

---

Test: Pharmacokinetic study, oral capsule administration under fasted conditions in beagle dogs
Format: in vivo
Details: dog, mean, male beagle dogs, equivalent metaxalone dosage of 21 mg/kg, plasma metaxalone by LC-MS/MS, read-out: Cmax
assay_readout: Cmax (ng/mL)
Only the number, expressed in ng/mL, is required.

Tell me its Cmax given Cc1cc(C)cc(OCC2CNC(=O)O2)c1 (stereo not shown) [Metaxalone] as the entry. 1910
